MEASURED_TARGET: Steroid hormone receptor ERR1, Homo sapiens (UniProt P11474)
Sequence (whole entry): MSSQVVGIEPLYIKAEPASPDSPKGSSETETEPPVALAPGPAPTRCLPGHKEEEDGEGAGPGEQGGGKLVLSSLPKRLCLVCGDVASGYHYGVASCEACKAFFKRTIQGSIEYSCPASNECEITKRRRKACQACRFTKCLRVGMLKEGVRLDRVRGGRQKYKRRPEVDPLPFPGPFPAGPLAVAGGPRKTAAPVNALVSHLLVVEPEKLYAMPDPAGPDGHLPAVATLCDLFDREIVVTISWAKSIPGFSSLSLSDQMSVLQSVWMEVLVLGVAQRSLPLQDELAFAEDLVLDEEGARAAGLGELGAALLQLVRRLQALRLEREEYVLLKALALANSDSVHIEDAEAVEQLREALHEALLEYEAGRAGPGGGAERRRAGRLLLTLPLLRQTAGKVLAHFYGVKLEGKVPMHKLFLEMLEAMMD
RUN_DESCRIPTION: PubChem AID 1259402
Screen size: about 9,700 compounds; about 390 (4%) were called active. The full list was thinned out, with actives kept by preference.
PARAMETER_MEASURED: outcome

SMILES_NOTATION | REPORTED
CCCCN(CCCCO)N=O | inactive
O=C(Cc1ccccc1)OCCc1ccccc1 | inactive
Nc1ncc([N+](=O)[O-])s1 | inactive
